Data provenance is patent EP0204284A2.

Form field: Residual activity, % (one value per entry).
# Test system: lipase
# Type: biochemical, Pseudomonas fragi 22.39B
# TEST CONTEXT: 9:1 by volume mixture of 5U/ml enzyme solution and 10 mM metal ion solution, 25°C, 30 minutes; no calcium chloride
Numbers only; they are read as %.

Q: # return recorded Residual activity, % for input [Ca+2].[Cl-].[Cl-]
Ans: 105.5

Q: # return recorded Residual activity, % for input [Cl-].[Cl-].[Sr+2]
Ans: 92.7

###

# Tested on: lipase
# ASSAY COMMENT: Substrate specificity: relative rate of decomposition of esters, oils and fats (shaking method)
# Assay type: biochemical, Pseudomonas fragi 22.39B
# TEST CONTEXT: ester as the substrate; triolein as the reference (100); shaking method, pH 9.0, 37°C, 30 minutes
Relative rate of decomposition, % less than 60% is Condition met; Relative rate of decomposition, % greater than or equal to 60% is Condition not met.

Worked set:
CCCC(=O)OC [Methyl butyrate]    Condition met
CCCCCCCC/C=C\CCCCCCCC(=O)OC [Methyl oleate]    Condition not met

Q: Determine if CC(=O)OCC(COC(C)=O)OC(C)=O shows Relative rate of decomposition, % strictly lower than 60%.
Ans: Condition not met

Q: Determine if CCCC(=O)OCC(COC(=O)CCC)OC(=O)CCC shows Relative rate of decomposition, % strictly lower than 60%.
Ans: Condition not met

Q: Determine if CCCCCCCC/C=C\CCCCCCCC(=O)OCCOCC(OCCO)C1OCC(OCCO)C1OCCO (stereo not shown) [Polyoxyethylene sorbitan monooleate] shows Relative rate of decomposition, % strictly lower than 60%.
Ans: Condition met

Q: Determine if CCCCCCCC/C=C\CCCCCCCC(=O)OCCCC [Butyl oleate] shows Relative rate of decomposition, % strictly lower than 60%.
Ans: Condition not met

###

Form field: Residual activity, % (one value per entry).
# System: lipase
# ASSAY COMMENT: Influence of surface active agents on the enzymatic activity (residual activity)
# Format: biochemical, Pseudomonas fragi 22.39B
# TEST CONTEXT: 9:1 by volume mixture of 10 U/ml enzyme solution and 4% aqueous solution of surface active agent, 25°C, 30 minutes
Numbers only; they are read as %.

CCCCCCCCCCCC[N+](C)(C)C.[Br-] [n-Dodecyl trimethyl ammonium bromide]    46
CCCCCCCCCCCC[N+](C)(C)C.[Cl-] [Dodecyl trimethyl ammonium chloride]    35
CCCCCCCC/C=C\CCCCCCCC(=O)OCCOCC(OCCO)C1OCC(OCCO)C1OCCO (stereo not shown) [Polyoxyethylene sorbitan monooleate]    115

Consider the additional molecule presented here.
Q: # return recorded Residual activity, % for input CCCCCCCCCCCCCCCC[N+](C)(C)C.[Br-] [Cetyl trimethyl ammonium bromide]
Ans: 12

###

# System: lipase
# Assay type: biochemical, Pseudomonas fragi 22.39B
# TEST CONTEXT: 9:1 by volume mixture of 5U/ml enzyme solution and 10 mM metal ion solution, 25°C, 30 minutes; no calcium chloride
OBSERVED PROPERTY: Residual activity, % (%)
Numbers only; they are read as %.

Would you please look over these solved cases?
[Cl][Cu][Cl]    90.8
[Cl][Sn][Cl]    79.8
[Cl][Ag]    93.6

Q: # return recorded Residual activity, % for input [Cl][Pb][Cl]
Ans: 78.0

Q: # return recorded Residual activity, % for input [Ba+2].[Cl-].[Cl-]
Ans: 92.7

Q: # return recorded Residual activity, % for input [Cl][Hg][Cl] [HgCl2, mercury (II) chloride]
Ans: 83.5

Q: # return recorded Residual activity, % for input [Cl-].[Cl-].[Co+2]
Ans: 86.6

Q: # return recorded Residual activity, % for input [Cl][Al]([Cl])[Cl]
Ans: 93.6
